# Tested on: HT29 colon
# methodNotes: NCI-60 one-dose screen, 48 h (100 = growth as untreated, 0 = no growth, -100 = all killed)
# measurementSetup: 10 µM unless noted
Compounds without any hit were thinned out: in the full panel of roughly 83,000, 20% have a hit.
// reported growth per item
# unit: % | format: bare number

[[record]]
compound = "CCOC(=O)c1c(C)nc2c(c1N)CC(=O)N2Cc1cc(OC)c(OC)c(OC)c1"
resulttype = "growth"
unitabbreviation = "%"
assayresult = 8.37

[[record]]
compound = "C[C@@H](CO)[C@@H]1CC[C@]2(C(=O)N3CCN(C)CC3)CC[C@]3(C)[C@H](CC[C@@H]4[C@@]5(C)CC[C@H](O)C(C)(C)[C@@H]5CC[C@]43C)[C@@H]12"
resulttype = "growth"
unitabbreviation = "%"
assayresult = 17.6


stdin: Bench note: what growth did CCOC(=O)c1c(C)nc2ccccc2c1/C=C/c1ccc(OC)cc1 show?
stdout: 73.5

stdin: Item under review: CCCCCCCCCCCCCCCCOC(=O)c1c(C)[nH]c(/C=C2\N=C(c3ccc[nH]3)C=C2OC)c1C . Reported growth?
stdout: 13.6
